B1: TLE6 (parent)
chain: FWHDTLTEQLWRIFAGVHDEKAKP

Variants of: B1
EXPERIMENT SUMMARY: protein stability index of a GFP-peptide fusion (GPS, HEK-293T) (PSI 1-6); higher = more stable;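 note: lentivirally expressed fusions sorted by FACS into six bins by GFP to DsRed ratio, PSI derived from sequencing read proportions per bin multiplied by bin number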
PARTICULARS: c terminus: a fixed tail appended
PARAMETER MEASURED: protein stability index

- INPUT SEQUENCE: "FWHDTLTEQLWRKFAGVHDEKAKP [I13K]"
  REPORTED: 2.53
- INPUT SEQUENCE: "FWHDTLTEQLWVIFAGVHDEKAKP [R12V]"
  REPORTED: 1.71
- INPUT SEQUENCE: "FWHDTLTECLWRIFAGVHDEKAKP [Q9C]"
  REPORTED: 3.67
- INPUT SEQUENCE: "FWHDTLTEHLWRIFAGVHDEKAKP [Q9H]"
  REPORTED: 2.59
- INPUT SEQUENCE: "FWHDTLTYQLWRIFAGVHDEKAKP [E8Y]"
  REPORTED: 2.53
- INPUT SEQUENCE: "FWHDTLTEQLWRIFAGGHDEKAKP [V17G]"
  REPORTED: 2.26
- INPUT SEQUENCE: "FWHDTLTEQLWRIFAGVHVEKAKP [D19V]"
  REPORTED: 3.94
- INPUT SEQUENCE: "FWHDTLTEQLWRIFAGVHDHKAKP [E20H]"
  REPORTED: 1.46
- INPUT SEQUENCE: "FWGDTLTEQLWRIFAGVHDEKAKP [H3G]"
  REPORTED: 1.82
- INPUT SEQUENCE: "FWHDTLTEQLWRIFAGVHDYKAKP [E20Y]"
  REPORTED: 2.01
- INPUT SEQUENCE: "FWHDTLTEQLWRIFAGVHDEYAKP [K21Y]"
  REPORTED: 3.31
- INPUT SEQUENCE: "FWKDTLTEQLWRIFAGVHDEKAKP [H3K]"
  REPORTED: 1.82
- INPUT SEQUENCE: "FKHDTLTEQLWRIFAGVHDEKAKP [W2K]"
  REPORTED: 2.11
- INPUT SEQUENCE: "FWHDTLTEQLWRIFAGYHDEKAKP [V17Y]"
  REPORTED: 1.54
- INPUT SEQUENCE: "FWHDTTTEQLWRIFAGVHDEKAKP [L6T]"
  REPORTED: 1.81
- INPUT SEQUENCE: "FWHDTLTEQLWRIFAGVHDEKAKS [P24S]"
  REPORTED: 2.07
- INPUT SEQUENCE: "FWHDTLTFQLWRIFAGVHDEKAKP [E8F]"
  REPORTED: 2.17
- INPUT SEQUENCE: "FWHDTLGEQLWRIFAGVHDEKAKP [T7G]"
  REPORTED: 2.28
- INPUT SEQUENCE: "FWCDTLTEQLWRIFAGVHDEKAKP [H3C]"
  REPORTED: 1.95
- INPUT SEQUENCE: "FWHDWLTEQLWRIFAGVHDEKAKP [T5W]"
  REPORTED: 1.46
- INPUT SEQUENCE: "FWHDTLTEQLWRIFAGVHAEKAKP [D19A]"
  REPORTED: 2.33
- INPUT SEQUENCE: "FWHMTLTEQLWRIFAGVHDEKAKP [D4M]"
  REPORTED: 2.44
- INPUT SEQUENCE: "FWHDDLTEQLWRIFAGVHDEKAKP [T5D]"
  REPORTED: 2.13
- INPUT SEQUENCE: "FWHDTCTEQLWRIFAGVHDEKAKP [L6C]"
  REPORTED: 1.97
- INPUT SEQUENCE: "FWHDTLTEQLWRIFAGVHDEKQKP [A22Q]"
  REPORTED: 1.53
- INPUT SEQUENCE: "FWHDTLTEQLWRIFAGVHDDKAKP [E20D]"
  REPORTED: 2.62
- INPUT SEQUENCE: "FWHLTLTEQLWRIFAGVHDEKAKP [D4L]"
  REPORTED: 1.74
- INPUT SEQUENCE: "PWHDTLTEQLWRIFAGVHDEKAKP [F1P]"
  REPORTED: 2.18
- INPUT SEQUENCE: "FWHDTLTCQLWRIFAGVHDEKAKP [E8C]"
  REPORTED: 1.62
- INPUT SEQUENCE: "FWHDTPTEQLWRIFAGVHDEKAKP [L6P]"
  REPORTED: 1.63
- INPUT SEQUENCE: "FWSDTLTEQLWRIFAGVHDEKAKP [H3S]"
  REPORTED: 1.72
- INPUT SEQUENCE: "FWHDTLTEQPWRIFAGVHDEKAKP [L10P]"
  REPORTED: 1.61
- INPUT SEQUENCE: "FWHDTLTEQLWRIFTGVHDEKAKP [A15T]"
  REPORTED: 1.89
- INPUT SEQUENCE: "FWHDTLTEQLWRIFAGVHDQKAKP [E20Q]"
  REPORTED: 1.96
- INPUT SEQUENCE: "FWHDTLTEQLWRIFAGVHDEKAAP [K23A]"
  REPORTED: 1.78
- INPUT SEQUENCE: "FWHDTLTEQMWRIFAGVHDEKAKP [L10M]"
  REPORTED: 1.88
- INPUT SEQUENCE: "FWHDTLTEQLWRIFAGPHDEKAKP [V17P]"
  REPORTED: 1.65
- INPUT SEQUENCE: "FWHDTLTKQLWRIFAGVHDEKAKP [E8K]"
  REPORTED: 2.04
- INPUT SEQUENCE: "FWHDCLTEQLWRIFAGVHDEKAKP [T5C]"
  REPORTED: 1.34
- INPUT SEQUENCE: "RWHDTLTEQLWRIFAGVHDEKAKP [F1R]"
  REPORTED: 2.48
- INPUT SEQUENCE: "FWHDTLTEQLWRIFAGVHDEKAKN [P24N]"
  REPORTED: 2.68
- INPUT SEQUENCE: "FWHDTLTEQLWRIRAGVHDEKAKP [F14R]"
  REPORTED: 2.4
- INPUT SEQUENCE: "FWHDTLTEQLWGIFAGVHDEKAKP [R12G]"
  REPORTED: 2.23
- INPUT SEQUENCE: "FWHDTLTEQLWRIFAGVHDEKALP [K23L]"
  REPORTED: 1.89
- INPUT SEQUENCE: "FWHDTLTEQLWRIFAGVHIEKAKP [D19I]"
  REPORTED: 2.08
- INPUT SEQUENCE: "FWHDTLTEQLWRIFAGVHDEKAGP [K23G]"
  REPORTED: 1.35
- INPUT SEQUENCE: "FWHDTLIEQLWRIFAGVHDEKAKP [T7I]"
  REPORTED: 2.04
- INPUT SEQUENCE: "FWHDTLTEQLWRIFAGLHDEKAKP [V17L]"
  REPORTED: 1.48
- INPUT SEQUENCE: "FWHDTLTEPLWRIFAGVHDEKAKP [Q9P]"
  REPORTED: 2.69
- INPUT SEQUENCE: "FWFDTLTEQLWRIFAGVHDEKAKP [H3F]"
  REPORTED: 1.96
- INPUT SEQUENCE: "FWHDTLTGQLWRIFAGVHDEKAKP [E8G]"
  REPORTED: 1.69
- INPUT SEQUENCE: "FWHDTLTEQLWRIFAGVHWEKAKP [D19W]"
  REPORTED: 3.85
- INPUT SEQUENCE: "FWHDTLTEQLWRIIAGVHDEKAKP [F14I]"
  REPORTED: 2.56
- INPUT SEQUENCE: "FWHDTLTEQLWRIFAMVHDEKAKP [G16M]"
  REPORTED: 2.14
- INPUT SEQUENCE: "FWHDTLEEQLWRIFAGVHDEKAKP [T7E]"
  REPORTED: 1.42
- INPUT SEQUENCE: "FWHDTLTEQLWRIFAGVHCEKAKP [D19C]"
  REPORTED: 2.06
- INPUT SEQUENCE: "FGHDTLTEQLWRIFAGVHDEKAKP [W2G]"
  REPORTED: 1.69
- INPUT SEQUENCE: "FWHDTLTEQLWRIFAQVHDEKAKP [G16Q]"
  REPORTED: 1.89
- INPUT SEQUENCE: "FWHDTLTEQLWRPFAGVHDEKAKP [I13P]"
  REPORTED: 2.85
- INPUT SEQUENCE: "FWHDTLTEQLWRIHAGVHDEKAKP [F14H]"
  REPORTED: 1.65
- INPUT SEQUENCE: "FWHDTLTEQLWRYFAGVHDEKAKP [I13Y]"
  REPORTED: 2.1
- INPUT SEQUENCE: "FWHDTLMEQLWRIFAGVHDEKAKP [T7M]"
  REPORTED: 2.19
- INPUT SEQUENCE: "FWHDTLTEQLWRIFAGVWDEKAKP [H18W]"
  REPORTED: 1.36
- INPUT SEQUENCE: "QWHDTLTEQLWRIFAGVHDEKAKP [F1Q]"
  REPORTED: 2.54
- INPUT SEQUENCE: "FWHDTLREQLWRIFAGVHDEKAKP [T7R]"
  REPORTED: 1.89
- INPUT SEQUENCE: "FWHDTLTEQLWSIFAGVHDEKAKP [R12S]"
  REPORTED: 2.06
- INPUT SEQUENCE: "FWHDTLTDQLWRIFAGVHDEKAKP [E8D]"
  REPORTED: 2.02
- INPUT SEQUENCE: "FDHDTLTEQLWRIFAGVHDEKAKP [W2D]"
  REPORTED: 2.61
- INPUT SEQUENCE: "FWHDTLTEQLWRIFAGAHDEKAKP [V17A]"
  REPORTED: 2.81
- INPUT SEQUENCE: "FWHDTLTEQLWRIFAGVHKEKAKP [D19K]"
  REPORTED: 1.7
- INPUT SEQUENCE: "FWHDTLTEQLWNIFAGVHDEKAKP [R12N]"
  REPORTED: 2.2
- INPUT SEQUENCE: "EWHDTLTEQLWRIFAGVHDEKAKP [F1E]"
  REPORTED: 1.81
- INPUT SEQUENCE: "FNHDTLTEQLWRIFAGVHDEKAKP [W2N]"
  REPORTED: 2.1
- INPUT SEQUENCE: "FWHDTLTEQLWRIFAGVHDEKACP [K23C]"
  REPORTED: 2.13
- INPUT SEQUENCE: "FWHDTLTEQLWRIFAGVHFEKAKP [D19F]"
  REPORTED: 2.61
- INPUT SEQUENCE: "FWHDTLTEQLWRIFAGVHDEKATP [K23T]"
  REPORTED: 2.3
- INPUT SEQUENCE: "MWHDTLTEQLWRIFAGVHDEKAKP [F1M]"
  REPORTED: 2.12
- INPUT SEQUENCE: "FWHDTLTEQLWRIFAKVHDEKAKP [G16K]"
  REPORTED: 2.12
- INPUT SEQUENCE: "FWHDTLTENLWRIFAGVHDEKAKP [Q9N]"
  REPORTED: 2.45
- INPUT SEQUENCE: "FWHDTLTEQLWRIFAGVMDEKAKP [H18M]"
  REPORTED: 2.48
- INPUT SEQUENCE: "FWHDNLTEQLWRIFAGVHDEKAKP [T5N]"
  REPORTED: 2.23
- INPUT SEQUENCE: "FIHDTLTEQLWRIFAGVHDEKAKP [W2I]"
  REPORTED: 2.26
- INPUT SEQUENCE: "FWHDTLTEQLWRIFAGVHDERAKP [K21R]"
  REPORTED: 1.31
- INPUT SEQUENCE: "FWHDTLTEQLWRIFAGSHDEKAKP [V17S]"
  REPORTED: 1.85
- INPUT SEQUENCE: "FWHDTLTEQLWRIFAGVHDTKAKP [E20T]"
  REPORTED: 1.91
- INPUT SEQUENCE: "FWHDTLTEQLRRIFAGVHDEKAKP [W11R]"
  REPORTED: 2.22
- INPUT SEQUENCE: "FWHDTLTEQLWRIFMGVHDEKAKP [A15M]"
  REPORTED: 1.39
- INPUT SEQUENCE: "FWHETLTEQLWRIFAGVHDEKAKP [D4E]"
  REPORTED: 1.99
- INPUT SEQUENCE: "FWHDTLTEQLWRIFAGVHDETAKP [K21T]"
  REPORTED: 1.85
- INPUT SEQUENCE: "FWHDTLTEQLQRIFAGVHDEKAKP [W11Q]"
  REPORTED: 2.21
- INPUT SEQUENCE: "FWEDTLTEQLWRIFAGVHDEKAKP [H3E]"
  REPORTED: 2.47
